System: MCF7
protocol-description: Cytotoxicity against human MCF7 cells after 48 hrs by MTT assay
Type: functional, cell-based
run-parameters: MCF7, 48 h
Consider the following molecules; for each one, report its pIC50.
Answers are plain numbers, as −log10 of the molar value.

>  <molecule>
CCC/C=C\C/C=C\C/C=C\CCCCC(=O)O[C@@H](COC(=O)CCCCCCCCCCCCCCC)[C@H](O)[C@H](CO)NC(=O)CCCCCCCCCCC [BATHYMODIOLAMIDE A]

>  <pIC50>
7.00

$$$$

Note: attention shifts to another entry.
Asked: Looking for the measured pIC50 of CCC/C=C\C/C=C\CCC(=O)O[C@@H](COC(=O)CCCCCCCCCCCCC)[C@H](O)[C@H](CO)NC(=O)CCCCCCCCCCC [BATHYMODIOLAMIDE B] , can you help?
Given back: 6.70

----------
System: HeLa
protocol-description: Cytotoxicity against human HeLa cells after 48 hrs by MTT assay
Format: functional, cell-based
readout-kind: pIC50
One number for each entry, as −log10 of the molar value.

>  <molecule>
CCC/C=C\C/C=C\C/C=C\CCCCC(=O)O[C@@H](COC(=O)CCCCCCCCCCCCCCC)[C@H](O)[C@H](CO)NC(=O)CCCCCCCCCCC [BATHYMODIOLAMIDE A]

>  <readout-kind>
pIC50

>  <measured-result>
6.40

$$$$

Let us move to another entry and its pIC50.
Asked: Missing value: pIC50, HeLa, entry CCC/C=C\C/C=C\CCC(=O)O[C@@H](COC(=O)CCCCCCCCCCCCC)[C@H](O)[C@H](CO)NC(=O)CCCCCCCCCCC [BATHYMODIOLAMIDE B] . Fill in?
Given back: 6.30
